Tested on: MDA-MB231
Assay: Cell vitality assay (ATP assay, CellTiter-Glo)
Assay type: cell-based
Conditions: Homo sapiens, MDA-MB-231; MDA-MB231, 72 h; Table IIa; read-out: IC50 ATP-Assay after 72 h MDA-MB231
READOUT_KIND: IC50

> print(dat)
                                   molecule   measured
1  COc1cc2c(Oc3ccc(NS(=O)(=O)c4ccccc4C(F)(F)F)cc3F)ccnc2cc1OCCCNC1CCOCC1 [Example 95]  ≤ 12.5 µM
2  COc1cc2c(Oc3ccc(NS(=O)(=O)c4cccc(Oc5ccccc5)c4)cc3F)ccnc2cc1OCCCN1CCCC(C)C1 (centres unmarked) [Example 59]  ≤ 12.5 µM
3  COc1cc2c(Oc3c(Cl)cc(NS(=O)(=O)c4c(F)cccc4F)cc3Cl)ccnc2cc1OCCCN1CCN(C)CC1 [Example 88]  ≤ 12.5 µM

Kindly note: MDA-MB231, COc1cc2c(Oc3ccc(NS(=O)(=O)c4ccc(F)cc4F)cc3F)ccnc2cc1OCCCN1CCCC(C)C1 (centres unmarked) [Example 47] , IC50 value reported: 12.5 to 50 µM

Simply: COc1cc2c(Oc3ccc(NS(=O)(=O)c4c(Cl)cccc4Cl)cc3F)ccnc2cc1OCCCN1CCN(C)CC1 [Example 32] , MDA-MB231, IC50 = ≤ 12.5 µM

# lookup: COc1cc2c(Oc3ccc(NS(=O)(=O)c4ccc(C)c(F)c4)cc3F)ccnc2cc1OCCCN1CCCC(C)C1 (centres unmarked) [Example 56] on MDA-MB231, IC50 = 12.5 to 50 µM

Value sought: IC50, system MDA-MB231, item COc1cc2c(Oc3ccc(NS(=O)(=O)c4ccccc4Cl)cc3F)ccnc2cc1OCCCN1CCCC(C)C1 (centres unmarked) [Example 38] . Result: ≤ 12.5 µM

Param item: COc1cc2c(Oc3ccc(NS(=O)(=O)c4ccccc4[N+](=O)[O-])cc3F)ccnc2cc1OCCCN1CCN(C)CC1 [Example 21] ; param system: MDA-MB231; output IC50: 12.5 to 50 µM

----------
Listing of entries alongside the reported IC50.
System: Hs578T
Experiment: Matrigel outgrowth assay/branching assay
Assay type: cell-based
Conditions: Homo sapiens, Hs-578T; HS578T cell line; Table Ib; read-out: Total branching inhibition in Matrigel HS578T

Past entries and their recorded results:
> print(dat)
                                   compound  assayed.system  readout.kind     measured
1  COc1cc2c(Oc3ccc(Cl)c(NS(=O)(=O)c4cc(F)ccc4F)c3)ccnc2cc1OCCCN1CCC(C)CC1          Hs578T          IC50  10 to 25 µM
2  COC(=O)c1sccc1S(=O)(=O)Nc1ccc(Oc2ccnc3cc(OCCCN4CCCCC4)c(OC)cc23)c(F)c1          Hs578T          IC50  10 to 25 µM

Bench note, Hs578T: entry COc1cc2c(Oc3ccc(NS(=O)(=O)c4c[nH]c(C)n4)cc3F)ccnc2cc1OCCCN1CCCCC1C (stereo not drawn) , its IC50 = 10 to 25 µM

Let me check: COc1cc2c(Oc3ccc(NS(=O)(=O)c4cc(F)ccc4F)cc3F)ccnc2cc1OCCCCOC(C)=O , system Hs578T, measured IC50 is 10 to 25 µM
